- Target entity: human β3 adrenergic receptor (Homo sapiens)
- Construct: expressed in transfected cells; host or cells: Chinese hamster ovary (CHO) cells, stably transfected
- Sequence (P13945 whole entry): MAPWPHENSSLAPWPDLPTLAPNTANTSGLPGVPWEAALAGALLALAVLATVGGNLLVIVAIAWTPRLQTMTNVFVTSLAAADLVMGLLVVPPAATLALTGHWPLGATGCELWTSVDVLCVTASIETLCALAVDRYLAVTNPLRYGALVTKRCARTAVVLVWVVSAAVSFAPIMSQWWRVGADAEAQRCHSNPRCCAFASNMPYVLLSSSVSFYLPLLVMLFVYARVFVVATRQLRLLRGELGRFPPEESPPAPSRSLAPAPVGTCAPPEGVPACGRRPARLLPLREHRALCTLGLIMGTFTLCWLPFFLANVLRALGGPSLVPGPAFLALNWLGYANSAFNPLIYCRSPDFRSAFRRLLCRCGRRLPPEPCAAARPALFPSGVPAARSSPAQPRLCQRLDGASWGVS
- Protocol notes: Functional assay: cAMP production (LANCE TR-FRET) in CHO cells stably transfected with cloned β3 adrenergic receptor
- Type: cell-based
- Recorded conditions: Table 5; read-out: Human β3 Functional
Listing of entries alongside the reported EC50.

# Molecule, Target entity, Metric, Assay result
measured = [
    ("O=C(Nc1ccc(C[C@@H]2CC[C@H]([C@H](O)c3ccccc3)N2)cc1)C1CCc2sc(-c3ccc(F)cc3)nc21 (single isomer, unassigned) [Example 123]", "human β3 adrenergic receptor (Homo sapiens)", "EC50", "101 to 1000 nM"),
    ("C[C@H](C(=O)Nc1ccc(C[C@@H]2CC[C@H]([C@H](O)c3ccccc3)N2)cc1)c1csc(N)n1", "human β3 adrenergic receptor (Homo sapiens)", "EC50", "< 1 nM"),
    ("CC(C(=O)Nc1ccc(C[C@@H]2CC[C@H]([C@H](O)c3ccccc3)N2)cc1)N1CCOC1=O (single isomer, unassigned) [Example 208]", "human β3 adrenergic receptor (Homo sapiens)", "EC50", "1 to 10 nM"),
    ("CC(C(=O)Nc1ccc(C[C@@H]2CC[C@H]([C@H](O)c3ccccc3)N2)cc1)n1cc(C(=O)O)nn1 (single isomer, unassigned) [Example 190]", "human β3 adrenergic receptor (Homo sapiens)", "EC50", "11 to 100 nM"),
    ("CC(C(=O)Nc1ccc(C[C@@H]2CC[C@H]([C@H](O)c3ccccc3)N2)cc1)n1cnc2ccccc2c1=O (single isomer, unassigned) [Example 167]", "human β3 adrenergic receptor (Homo sapiens)", "EC50", "< 1 nM"),
]

Record Cc1noc2c1CCC2C(=O)Nc1ccc(C[C@@H]2CC[C@H]([C@H](O)c3ccccc3)N2)cc1 (single isomer, unassigned) [Example 141] , field EC50: 1 to 10 nM

Record CC(C(=O)Nc1ccc(C[C@@H]2CC[C@H]([C@H](O)c3ccccc3)N2)cc1)c1nccs1 (single isomer, unassigned) [Example 200] , field EC50: < 1 nM

Record Cc1nnc2n1CCC2C(=O)Nc1ccc(C[C@@H]2CC[C@H]([C@H](O)c3ccccc3)N2)cc1 (single isomer, unassigned) [Example 125] , field EC50: 1 to 10 nM

---

- Target entity: human β3 adrenergic receptor (Homo sapiens)
- Construct: expressed in transfected cells; host or cells: Chinese hamster ovary (CHO) cells, stably transfected
- Protocol notes: Functional assay: cAMP production (LANCE TR-FRET) in CHO cells stably transfected with cloned β3 adrenergic receptor
- Format: cell-based
- Recorded conditions: Table 4; human β3 functional activity; read-out: Human β Binding
Listing of entries alongside the reported EC50.

# Compound, Target entity, Assay result
data = [
    ("O=C(CN1CCCOC1=O)Nc1ccc(C[C@@H]2CC[C@H]([C@H](O)c3ccccc3)N2)cc1", "human β3 adrenergic receptor (Homo sapiens)", "1 to 10 nM"),
    ("O=C(Cc1c(F)cccc1F)Nc1ccc(C[C@@H]2CC[C@H]([C@H](O)c3ccccc3)N2)cc1", "human β3 adrenergic receptor (Homo sapiens)", "1 to 10 nM"),
]

Record `O=C(CN1CCOC1=O)Nc1ccc(C[C@@H]2CC[C@H]([C@H](O)c3ccccc3)N2)cc1` , field EC50: 11 to 100 nM

Record `Cc1csc(CC(=O)Nc2ccc(C[C@@H]3CC[C@H]([C@H](O)c4ccccc4)N3)cc2)n1` , field EC50: 11 to 100 nM

Record `Cc1cn(CC(=O)Nc2ccc(C[C@@H]3CC[C@H]([C@H](O)c4ccccc4)N3)cc2)c(=O)[nH]c1=O` , field EC50: 1 to 10 nM
